test summary: Observed volume of distribution at steady state in male CD1 mouse at 3 mg/kg, IV measured upto 24 hrs by LC-MS/MS-39 analysis
Format: ADME, organism-based
reported conditions: in vivo, read-out: Vdss
measured parameter: Vd (L/kg)
Only the number, expressed in L/kg, is required.

# Vd (compound: Cc1ncsc1-c1ccc([C@H](C)NC(=O)[C@@H]2C[C@@H](O)CN2C(=O)[C@@H](NC(=O)CCCC#Cc2ccc(C(=O)Nc3n[nH]c4c3CN(C(=O)N[C@H](CN(C)C)c3ccccc3)C4(C)C)cc2)C(C)(C)C)cc1 ) is 0.345

----------
test summary: Cmax in male CD1 mouse at 3 mg/kg, IV measured upto 24 hrs by LC-MS/MS-39 analysis
Type: ADME, organism-based
reported conditions: in vivo
measured parameter: Cmax (µM)
Unit µM implied. Number only.

Cc1ncsc1-c1ccc([C@H](C)NC(=O)[C@@H]2C[C@@H](O)CN2C(=O)[C@@H](NC(=O)CCCC#Cc2ccc(C(=O)Nc3n[nH]c4c3CN(C(=O)N[C@H](CN(C)C)c3ccccc3)C4(C)C)cc2)C(C)(C)C)cc1 has a reported Cmax of 17.1
